- Tested on: MCF7 breast
- protocol summary: NCI tumour cell line growth inhibition, 48 h; in the data active = GI50 below about 0.43 µM; inactive = the rest
Result category, one only: active, inactive

COc1ncnc(S(=O)(=O)c2ccc(N=C3C(=O)N(CN4CCN(c5cc6c(cc5F)c(=O)c(C(=O)O)cn6C5CC5)CC4)c4ccc(Cl)cc43)cc2)c1OC = inactive
COc1cnc2c(c1)C(=O)c1c-2n(CCCNCCO)c(=O)c2ccncc12 = active

Incoming: Dear colleague, could you share the recorded outcome for `COC(=O)COc1ccc(/C=C2/N=C(c3ccccc3)N(c3c(C)n(C)n(-c4ccccc4)c3=O)C2=O)cc1` when you have a moment?
Outgoing: inactive

Incoming: Similarly, O=C(c1ccccc1)c1c(NCC(O)CN2CCOCC2)n(Cc2ccccc2)c(=O)n(Cc2ccccc2)c1=O (centres undefined) ?
Outgoing: inactive

Incoming: Similarly, `C=CC(=O)Nc1cc(N2CCN(CC)CC2)ccc1Nc1cc(N(C)C(=O)Nc2c(Cl)c(OC)cc(OC)c2Cl)ncn1` ?
Outgoing: inactive
